Record form. Attribute: Ki. Fill in for each entry.
# Measured on: Lysosomal alpha-mannosidase (Homo sapiens)
# Test protocol: Inhibition of alpha-mannosidase in human LN18 cells
# Type: cell-based
Express the result in µM but write the number alone.

[ask] # value lookup — system Lysosomal alpha-mannosidase (Homo sapiens), readout Ki, item CN1C(=O)[C@H](O)[C@H](O)[C@H]1CN[C@@H](CO)c1ccccc1
[reply] 3.2

[ask] Please provide the recorded Ki for OC[C@H](NC[C@H]1NC[C@H](O)[C@@H]1O)c1ccccc1 , tested on Lysosomal alpha-mannosidase (Homo sapiens).
[reply] 32.5

----------
# Test protocol: Growth inhibition of human LN18 cells after 24 hrs by MTT assay
# Format: functional, cell-based
# Run conditions: LN-18, 24 h
Measurement kind: IC50 (µM)
State the answer as a number, implicitly in µM.

[ask] Could you tell me which IC50 is on file for CN1C(=O)[C@H](O)[C@H](O)[C@H]1CN[C@@H](COC(=O)c1ccc(Br)cc1)c1ccccc1 ?
[reply] 145

Measured values drawn from ChEMBL document CHEMBL1155812 for this set.
